Taken from ChEMBL document CHEMBL1153719.

System: Candida parapsilosis
Assay: Antifungal activity against Candida parapsilosis ATCC 22019 at <100 ug/ml after 24 hrs by AFST-EUCAST method
Type: functional, organism-based
Activity calls are given as the source filed them. The rule behind the calls is not given here.
experimental-endpoint: Activity

- CC(C)c1ccc2c(c1)C(=O)C[C@H]1[C@](C)(CO)CCC[C@]21C: inactive
- CC(C)c1ccc2c(c1)CC[C@H]1[C@](C)(COC(=O)c3ccccc3)CCC[C@]21C [DEHYDROABIETINOLBENZOATE]: inactive
- CC(C)c1ccc2c(c1)CC[C@H]1[C@](C)(CO)CCC[C@]21C [POMIFERIN A]: inactive
- COC(=O)[C@]1(C)CCC[C@]2(C)c3ccc(C(C)C)cc3CC[C@@H]12 [METHYL DEHYDROABIETATE]: inactive
- CC(C)c1ccc2c(c1)CC[C@H]1[C@](C)(C=O)CCC[C@]21C [DEHYDROABIETINAL]: inactive
- CC(C)c1ccc2c(c1)[C@H](O)C[C@H]1[C@](C)(C=O)CCC[C@]21C: inactive
- CC(=O)OC[C@]1(C)CCC[C@]2(C)c3ccc(C(C)C)cc3CC[C@@H]12 [DEHYDROABIETINOL ACETATE]: inactive
- CC(C)c1ccc2c(c1)[C@H](O)C[C@H]1[C@](C)(CO)CCC[C@]21C: inactive
- CC(C)c1ccc2c(c1)CC[C@H]1[C@](C)(C(=O)O)CCC[C@]21C [DEHYDROABIETIC ACID]: inactive
